All values here come from PubChem BioAssay.

Biological target: Calmodulin-1 (Homo sapiens) (UniProt P0DP23)
Test: CALM1 binders on microarrays, EGTA buffer, profiling panel, biochemical, small-molecule microarray, Cy5-labelled CALM1 (AID 1111);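 note: labelled calmodulin applied in Tris saline Tween buffer holding calcium plus EGTA and DTT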
Details: Cy5-CALM1 binding fluorescence, higher = more signal
Endpoint name: composite z-score

Molecule: CO[C@H]1COC(=O)CCC[C@H](C)[C@H](OC)COC(=O)CC=C[C@@H]1C
Endpoint name: composite z-score
Value: -0.294

Molecule: COC(=O)C(C(=O)OC)C1CCCC(=O)C1 (configuration not stated)
Endpoint name: composite z-score
Value: -0.385

Molecule: O=C1[C@H]2CCn3c(=O)n(Cc4cc5c(cc4Cl)OCO5)c(=O)n3[C@H]2[C@H](O)[C@@H]2O[C@H]12
Endpoint name: composite z-score
Value: -0.806

Molecule: C[C@H]1CC[C@H]2C(=O)O[C@H](CO)CN2[C@@H]1c1ccc(Br)cc1
Endpoint name: composite z-score
Value: -0.25

Molecule: CC(=O)OC[C@H]1O[C@H](CCON=C(C)C)C=C[C@@H]1OC(C)=O
Endpoint name: composite z-score
Value: -0.42

Molecule: CCCNC(=O)OC[C@H]1O[C@H](CCON=C[C@@H](C)[C@H](OCc2ccccc2)C(C)C)C=C[C@@H]1Oc1ccc(OC)cc1
Endpoint name: composite z-score
Value: -0.755

Molecule: CCOC(=O)[C@H](CC(C)C)NC(=O)CCC1CC(OC(=O)NCCc2ccc(F)cc2)CC2(CCCC(COC(=O)NCCOC)O2)O1 (some centres not stated)
Endpoint name: composite z-score
Value: 0.217

Molecule: COC(=O)CC=C1c2ccccc2[C@H](OC)[C@H]1C
Endpoint name: composite z-score
Value: -0.452

Molecule: CC(CCC(=O)OC[C@H]1O[C@H](C#Cc2ccccc2)C=C[C@@H]1Oc1ccc(C)cc1)=NOC[C@@H](C)[C@H](OCc1ccccc1)C(C)C
Endpoint name: composite z-score
Value: -1.24

Molecule: C[C@@H]1C=CCC(=O)OC[C@H](C)C(=O)N[C@@H](Cc2ccccc2)C(=O)OC1
Endpoint name: composite z-score
Value: -0.273

Molecule: CCOC(=O)NN=C1C[C@@H](O)[C@@H](O)[C@@H]2[C@@H]3C(=O)N(CC)C(=O)[C@@H]3CC[C@H]12
Endpoint name: composite z-score
Value: -0.317

Molecule: O=C1[C@H]2[C@H]3[C@H](O)[C@H](O)CC(=NOC[C@@H](O)COCc4ccco4)[C@@H]3CC[C@H]2C(=O)N1Cc1ccc2c(c1)OCO2
Endpoint name: composite z-score
Value: -0.982

----------
Assay: anti-His antibody binders, primary screen, artefact control for SMM control protein annotation, biochemical, small-molecule microarray, 635 nm fluorescence (AID 1128);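 note: score merges feature fluorescence with signal-to-noise for each printed compound spot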
Details: anti-His Alexa647 antibody binding, higher = more signal
The label depends only on composite z-score: Satisfied if it is at least 0.1, Not satisfied if it is smaller.

Molecule: CCOC(=O)NN=C1C[C@@H](O)[C@@H](O)[C@@H]2[C@@H]3C(=O)N(CC)C(=O)[C@@H]3CC[C@H]12
Class: Satisfied
//
Molecule: CCN1C(=O)[C@H]2[C@H]3[C@H](O)[C@H](O)CC(=NNC(=O)OCc4ccccc4)[C@@H]3CC[C@H]2C1=O
Class: Satisfied
//
Molecule: COC(=O)[C@H](C)NC(=O)CCC1CC(OC(=O)NCc2cccc3ccccc23)CC2(CCCC(COC(=O)NCCCN3CCCC3=O)O2)O1 (stereo not given in full)
Class: Satisfied
//
Molecule: COc1ccc(OC[C@@H](CO)OC)cc1
Class: Satisfied
//
Molecule: CC1(C)O[C@H]2O[C@H]([C@H](O)CON=C3[C@H]4CCn5c(=O)n(-c6ccccc6)c(=O)n5[C@H]4[C@H](O)[C@@H]4O[C@H]34)[C@H](O)[C@H]2O1
Class: Satisfied
//
Molecule: COC(=O)[C@H](C)NC(=O)CCC1CC(OC(=O)NCCc2ccc(F)cc2)CC2(CCCC(COC(=O)NCC3CCCCC3)O2)O1 (stereo not given in full)
Class: Satisfied
//
Molecule: CON=C(C)CCN1CCc2nc(-c3ccccc3)c(-c3ccccc3)cc2C1
Class: Not satisfied
//
Molecule: C[C@@H]1CC[C@H]2C(=O)N3[C@@H](CC[C@@H](C)[C@@H]3c3ccc(Br)cc3)C(=O)N2[C@H]1c1ccc(Br)cc1
Class: Not satisfied
//
Molecule: COC(=O)[C@H](C)NC(=O)CCC1CC(OC(=O)NCCc2ccc(F)cc2)CC2(CCCC(COC(=O)NCCOc3ccccc3)O2)O1 (stereo not given in full)
Class: Satisfied
//
Molecule: CO[C@H]1COC(=O)[C@H](CCSC)NC(=O)CC=C[C@@H](C)[C@H](OC)COC(=O)[C@@H](OCc2ccccc2)C=C[C@@H]1C
Class: Satisfied
//
Molecule: C[C@@H](c1ccccc1)N1C(=O)[C@H]2[C@H]3[C@H](O)[C@H](O)CC(=NOC[C@@H](O)COCc4ccco4)[C@H]3CC[C@H]2C1=O
Class: Not satisfied
//
Molecule: CC(C)=NOC(C)CN1CCCc2nc(C)c(C)cc21 (stereo not given)
Class: Not satisfied
//
Molecule: O=C1CCCC=C1C(O)COCc1ccccc1 (stereo not given)
Class: Satisfied
//
Molecule: CO[C@@H]1COC(=O)[C@H](CCSC)NC(=O)CC=C[C@@H](C)COC(=O)[C@@H]2CCCN2C(=O)CC=C[C@H]1C
Class: Not satisfied
//
Molecule: COc1ccc(OC[C@@H]2CC3[C@@H](c4ccc(Br)cc4)[C@H](C)CC[C@H]3C(=O)O2)cc1 (stereo not given in full)
Class: Not satisfied
//
Molecule: CCOC(=O)[C@H](Cc1ccccc1)NC(=O)CCC1CC(OC(=O)NCc2ccc3c(c2)OCO3)CC2(CCCC(COC(=O)NCCc3ccc(Cl)cc3)O2)O1 (stereo not given in full)
Class: Not satisfied
//
Molecule: O=C1C2=CC[C@H]3C(=O)N(C4CCCCC4)C(=O)[C@H]3[C@H]2[C@H](O)[C@@H]2O[C@H]12
Class: Not satisfied
//
Molecule: CC(C)[C@@H](OCc1ccccc1)[C@H](C)CON=C1[C@H]2CCn3c(=O)n(-c4ccccc4)c(=O)n3[C@H]2[C@H](O)[C@@H]2O[C@H]12
Class: Satisfied
//
Molecule: COCCNC(=O)OCC1CCCC2(CC(OC(=O)NCc3cccc4ccccc34)CC(CCC(=O)N[C@@H](C)C(=O)OC)O2)O1 (stereo not given in full)
Class: Satisfied
//
Molecule: COc1ccc(O[C@H]2C=C[C@@H](c3ccccc3)O[C@@H]2CO)cc1
Class: Not satisfied
//
Molecule: C[C@@H]1CC[C@H]2C(=O)OC(CN3C(=O)c4ccccc4C3=O)CN2[C@H]1c1ccc(Br)cc1 (stereo not given in full)
Class: Satisfied
//
Molecule: CC(C)(C)N1C(=O)[C@H]2[C@H]3[C@H](O)[C@H](O)CC(=NOC[C@@H](O)COCc4ccco4)[C@H]3CC[C@H]2C1=O
Class: Satisfied
//
Molecule: CCOC(=O)CCN1C(=O)[C@H]2[C@H]3[C@H](O)[C@H](O)CC(=NNC(=O)OCc4ccc(OC)cc4)[C@H]3CC[C@H]2C1=O
Class: Not satisfied
//
Molecule: CCOC(=O)[C@H](Cc1ccccc1)NC(=O)CCC1CC(OC(=O)NCc2ccc3c(c2)OCO3)CC2(CCCC(COC(=O)NCCCN3CCCC3=O)O2)O1 (stereo not given in full)
Class: Satisfied
//
Molecule: CCN1C(=O)[C@H]2[C@H]3[C@H](O)[C@H](O)CC(=NO[C@@H](C)c4cc(-c5c(C)cc(C)cc5C)no4)[C@@H]3CC[C@H]2C1=O
Class: Not satisfied
//
Molecule: CON=C(C)CCN1CCCCc2nc(C)c(C)cc21
Class: Satisfied
//
Molecule: COc1ccc(COC(=O)NN=C2C[C@@H](O)[C@@H](O)[C@@H]3[C@@H]4C(=O)N(C5CCCCC5)C(=O)[C@@H]4CC[C@@H]23)cc1
Class: Satisfied
//
Molecule: COC(=O)[C@H](C)NC(=O)CCC1CC(OC(=O)NCc2cccc3ccccc23)CC2(CCCC(COC(=O)NCCc3ccccc3OC)O2)O1 (stereo not given in full)
Class: Satisfied
//
Molecule: CC(=O)OC[C@H]1O[C@@H](ON=C2[C@H]3CCn4c(=O)n(-c5ccccc5)c(=O)n4[C@H]3[C@H](O)[C@@H]3O[C@H]23)[C@H](OC(C)=O)[C@@H](OC(C)=O)[C@@H]1OC(C)=O
Class: Satisfied
//
Molecule: COc1ccc(O[C@H]2C=C[C@@H](c3ccccc3)O[C@@H]2CON=C2c3cc(OC)ccc3O[C@H](c3cccc(OC)c3)[C@H]2O)cc1
Class: Not satisfied
